test system: MUTZ-3 cells; test: GARD random forest model for prediction of CLP categories (52 transcripts, Example A); settings: Suppl. Table 1, separate replicates in the test set
Quantity Kind: predicted CLP

Tell me its predicted CLP given O=C(O)c1ccccc1 [benzoic acid] as the entry.
no cat

Tell me its predicted CLP given CCCCBr [1-bromobutane] as the entry.
no cat

Tell me its predicted CLP given O=C(OCc1ccccc1)c1ccccc1 [benzyl benzoate] as the entry.
1B

---

tested on: MUTZ-3 cells; assay: GARD binary classification (SVM on GARD prediction signature, 200 transcripts); details: Table 8; average SVM decision value derived from triplicates
Quantity Kind: SVM DV

Tell me its SVM DV given CC(C)O as the entry.
-1,37

Tell me its SVM DV given CC=Cc1ccc(O)c(OC)c1 as the entry.
1,91

Tell me its SVM DV given CC(C)=CCC/C(C)=C/CO as the entry.
1,76

Tell me its SVM DV given [K+].[K+].[O]=[Cr](=[O])([O-])[O][Cr](=[O])(=[O])[O-] [potassium dichromate] as the entry.
8,45

Tell me its SVM DV given O=C(O)c1ccccc1O as the entry.
-1,41

Tell me its SVM DV given Nc1ccccc1O as the entry.
5,98

Tell me its SVM DV given C=CC(=O)OCCO [2-hydroxyethyl acrylate] as the entry.
8,87

Tell me its SVM DV given OCC=Cc1ccccc1 as the entry.
2,94
